system: rodent lifetime carcinogenesis bioassay, tumor incidence TD50; test: carcinogenic potency in animals, long-term in vivo studies, CPDB compilation (AID 1745844); conditions: rat; strain IcoIbm:OFA (Sprague-Dawley derived); males; inhaled; site: nasal cavity, olfactory epithelium; lesion: neuroblastoma; dosed 104 weeks; study length 104 weeks
measured-endpoint: TD50

What does the record list as TD50 for `COc1ccc(C(=O)Nc2c(Cl)cncc2Cl)cc1OC1CCCC1` ? 3.75 mg/kg/day

----------
test system: rodent lifetime carcinogenesis bioassay, tumor incidence TD50; test: carcinogenic potency in animals, long-term in vivo studies, CPDB compilation (AID 1745844); details: rat; strain Sprague-Dawley Spartan; females; inhaled; site: mammary gland; lesion: fibroadenoma; dosed 78 weeks; study length 104 weeks
Active and inactive are the calls of the source. No rule for the calls is given here.
measured-endpoint: TD50

What does the record list as TD50 for `C=C(Cl)Cl` ? 16 mg/kg/day (inactive)

----------
Consider the following compounds and their measured TD50 readings.
system: rodent lifetime carcinogenesis bioassay, tumor incidence TD50; assay: carcinogenic potency in animals, long-term in vivo studies, CPDB compilation (AID 1745844); conditions: rat; strain Fischer 344; males; in feed; site: lung; lesion: alveolar/bronchiolar adenoma; dosed 103 weeks; study length 104 weeks
Use mg/kg/day as the unit, but write only the number.

What does the record list as TD50 for `N=C1C=CC(=C(c2ccc(N)cc2)c2ccc(N)cc2)C=C1` ? 281

What does the record list as TD50 for `Nc1c(Br)cc(Br)c2c1C(=O)c1ccccc1C2=O` ? 1290

----------
tested on: rodent lifetime carcinogenesis bioassay, tumor incidence TD50; test: carcinogenic potency in animals, long-term in vivo studies, CPDB compilation (AID 1745844); conditions: mouse; strain B6C3F1; males; in feed; site: all sites; lesion: hemangiosarcoma; dosed 78 weeks; study length 95 weeks
measured-endpoint: TD50

What does the record list as TD50 for `[O-]/[N+](=N\O)c1ccccc1` ? 1000 mg/kg/day

----------
system: rodent lifetime carcinogenesis bioassay, tumor incidence TD50; experiment: carcinogenic potency in animals, long-term in vivo studies, CPDB compilation (AID 1745844); settings: rat; strain Sprague-Dawley; males; i.p.; site: any site (literature study); lesion: malignant tumor; dosed 77 weeks; study length 100 weeks
measured-endpoint: TD50

What does the record list as TD50 for `O=C[C@H](NC(=O)N(CCCl)N=O)[C@@H](O)[C@H](O)[C@H](O)CO` ? 0.0521 mg/kg/day

----------
system: rodent lifetime carcinogenesis bioassay, tumor incidence TD50; test: carcinogenic potency in animals, long-term in vivo studies, CPDB compilation (AID 1745844); conditions: rat; strain Fischer 344; males; in feed; site: body cavities; lesion: mesothelioma, NOS + mesothelioma; dosed 78 weeks; study length 105 weeks
measured-endpoint: TD50 (mg/kg/day)
Use mg/kg/day as the unit, but write only the number.

What does the record list as TD50 for `[O-]/[N+](=N\O)c1ccccc1` ? 139

----------
tested on: rodent lifetime carcinogenesis bioassay, tumor incidence TD50; assay: carcinogenic potency in animals, long-term in vivo studies, CPDB compilation (AID 1745844); conditions: rat; strain Fischer 344; females; in feed; site: liver + lung; lesion: hepatocellular carcinoma + neoplastic nodule + alveolar/bronchiolar adenoma + alveolar/bronchiolar carcinoma; dosed 101 weeks; study length 101 weeks
measured-endpoint: TD50
Provide the measurement as a number trailed by its unit.

What does the record list as TD50 for `Cc1cc(C)c(N)cc1C` ? 20.4 mg/kg/day
